Target: COX-1 (Canis lupus familiaris, UniProt Q8HZR1)
Sequence (Q8HZR1 28-603): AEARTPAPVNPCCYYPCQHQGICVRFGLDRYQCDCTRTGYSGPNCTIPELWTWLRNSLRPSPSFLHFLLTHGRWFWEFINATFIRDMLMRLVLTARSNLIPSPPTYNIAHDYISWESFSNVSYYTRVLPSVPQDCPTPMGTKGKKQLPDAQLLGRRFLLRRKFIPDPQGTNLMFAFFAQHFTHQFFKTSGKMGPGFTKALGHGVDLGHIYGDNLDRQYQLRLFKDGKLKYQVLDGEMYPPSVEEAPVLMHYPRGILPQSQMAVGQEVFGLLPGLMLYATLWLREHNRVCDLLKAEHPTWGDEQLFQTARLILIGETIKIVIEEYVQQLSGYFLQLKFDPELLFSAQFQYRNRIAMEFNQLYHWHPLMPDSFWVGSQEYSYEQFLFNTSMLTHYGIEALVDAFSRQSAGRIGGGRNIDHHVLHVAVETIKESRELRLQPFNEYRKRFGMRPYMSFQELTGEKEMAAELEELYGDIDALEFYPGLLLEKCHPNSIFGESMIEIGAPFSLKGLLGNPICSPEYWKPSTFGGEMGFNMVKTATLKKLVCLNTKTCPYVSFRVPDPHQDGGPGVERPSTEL
Documented IC50 across a set of molecules
Measured parameter: IC50 (µM)

# Molecule, Reported result
rows = [
    ("CC1(C)OC(=O)C(OCC2CC2)=C1c1ccc(S(C)(=O)=O)cc1", 119),
    ("CC(C(=O)O)c1ccc2c(c1)[nH]c1ccc(Cl)cc12 (centres unmarked)", 68.6),
]

###

Target: UniProt Q8SPQ9
Sequence (Q8SPQ9 18-604): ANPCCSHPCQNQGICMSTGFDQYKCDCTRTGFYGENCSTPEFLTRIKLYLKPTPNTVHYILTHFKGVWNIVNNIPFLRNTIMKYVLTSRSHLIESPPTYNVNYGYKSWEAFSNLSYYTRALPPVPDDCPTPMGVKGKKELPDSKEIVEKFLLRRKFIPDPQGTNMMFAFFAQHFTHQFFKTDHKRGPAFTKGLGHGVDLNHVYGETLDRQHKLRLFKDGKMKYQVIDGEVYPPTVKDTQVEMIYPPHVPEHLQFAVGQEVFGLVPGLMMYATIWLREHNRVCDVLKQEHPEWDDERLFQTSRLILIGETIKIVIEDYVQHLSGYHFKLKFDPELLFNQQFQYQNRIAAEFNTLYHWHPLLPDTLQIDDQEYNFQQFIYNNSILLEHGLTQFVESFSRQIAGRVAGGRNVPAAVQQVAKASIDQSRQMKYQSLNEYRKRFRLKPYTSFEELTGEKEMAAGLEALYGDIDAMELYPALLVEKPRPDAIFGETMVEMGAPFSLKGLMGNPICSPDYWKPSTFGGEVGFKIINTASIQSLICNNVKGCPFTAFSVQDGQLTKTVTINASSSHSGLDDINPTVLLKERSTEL
Assay: COX-2 IC50 determination in dogs
Type: in vivo, dog
Parameters: from tissue
Measured parameter: IC50

# Compound, Reported result
rows = [
    ("CC(C(=O)O)c1ccc2c(c1)[nH]c1ccc(Cl)cc12 (stereo not shown)", "10 µM"),
]

###

target: COX-2 (Canis lupus familiaris); assay: COX-2 IC50 determination in dogs; format: in vivo, dog; design: from tissue; settings: six dogs; γ-tocopherol tested as tocopherol composition comprising 66.6% gamma-tocopherol; read-out: COX-2 IC50
Documented IC50 across a set of compounds

# Smiles representation, IC50 (µM)
records = [
    ("Cc1c(O)cc2c(c1C)O[C@](C)(CCC[C@H](C)CCC[C@H](C)CCCC(C)C)CC2", 27.8),
    ("CC1(C)OC(=O)C(OCC2CC2)=C1c1ccc(S(C)(=O)=O)cc1", 0.31),
]

Numbers sourced from patent US20070015822A1.
